Origin of the recorded values: the supplement of paper PMC10567573

B1: PHTF1 (parent)
chain: RVKLISNKGTETDNDPSCVHPIIK

# Variants of: B1
# method summary: protein stability index of a GFP-peptide fusion (GPS, HEK-293T) (PSI 1-6); higher = more stable;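 further: lentivirally expressed fusions sorted by FACS into six bins by GFP to DsRed ratio, PSI derived from sequencing read proportions per bin multiplied by bin number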
# measurement setup: c terminus: a fixed tail appended
measured quantity: protein stability index

The examples below pair each entry with its known result.
T10D | 4.1
P16M | 3.96

Proceeding to the next variant to report its protein stability index.
Query: Looking for the measured protein stability index of K3R , can you help?
Reply: 3.92
